- assay.remarks: acute toxicity (LD50) in the mouse
- experimental.conditions: in vivo, ip, read-out: intraperitoneal LD50
attribute.measured: LD50 (mg/kg)
Response body: numeric value in mg/kg, unit text excluded.

[Q] // returns reported LD50 for input Cc1cc(OCC(O)CNC(C)C)ccc1S(C)(=O)=O.Cl (stereo not shown)
[A] 339

###

- assay.remarks: acute toxicity (LD50) in the rat
- experimental.conditions: in vivo, po
attribute.measured: LD50 (mg/kg)
Response body: numeric value in mg/kg, unit text excluded.

[Q] // returns reported LD50 for input Cc1cc(OCC(O)CNC(C)C)ccc1S(C)(=O)=O.Cl (stereo not shown)
[A] 1790

###

- assay.remarks: acute toxicity (LD50) in the mouse
- experimental.conditions: in vivo, po, read-out: oral LD50
attribute.measured: LD50 (mg/kg)
Response body: numeric value in mg/kg, unit text excluded.

[Q] // returns reported LD50 for input Cc1cc(OCC(O)CNC(C)C)ccc1S(C)(=O)=O.Cl (stereo not shown)
[A] 1500
